# Subject of test: Plasmodium falciparum protein kinase 6 (PK6, PF3D7_1337100)
# Experiment description: PfPK6 kinase inhibitors, biochemical, TCAMS library (AID 1159586)
# Settings: recombinant PfPK6, Kinase-Glo ATP depletion luminescence
Entries with a potency or affinity are not part of this list. The source made the active and inactive calls. No rule for the calls is given here.
Measured attribute: outcome

Illustrative cases are given below, each with its answer.
{"columns": ["Molecule", "outcome"],
 "data": [
  ["CC(C)(C)Oc1ccc(NC(=O)c2ccccc2O)cc1", "inactive"],
  ["CC1(CCCCN2CCC(Oc3ccc(F)cc3F)CC2)C(=O)Nc2ccccc21 (stereo not given)", "inactive"],
  ["COc1cc(-c2nc3c4ccccc4c4ccccc4c3[nH]2)cc(OC)c1OC", "inactive"],
  ["CCC(COCc1ccc(Cl)cc1)N(C)CCN(C)C(CC)COCc1ccc(Cl)cc1 (stereo not given)", "inactive"],
  ["O=C(Nc1ccccc1)N(Cc1ccccc1-c1cccc(CNC2CCCC2)c1)C1CCN(Cc2ccccc2)CC1", "inactive"],
  ["Clc1cc(Nc2ncnc3sc(C#C[C@H]4CCCN4)cc23)ccc1OCc1cccnc1Cl", "inactive"]
]}

// query Any idea what outcome was measured for c1ncc(CCNc2nc(Nc3ccc4c(c3)OCO4)nc(NC3CCCC3)n2)[nH]1 ?
// result inactive

// query Any idea what outcome was measured for COc1ccc(C(=O)NCc2ccc(N)nc2C)cc1Nc1ncc(-c2cccc(N(C)C)c2)cn1 ?
// result inactive

// query Any idea what outcome was measured for CCCc1cc(N2CCC(c3ccccc3)(N3CCCCC3)CC2)nc(Nc2ccc(OC)cc2)n1 ?
// result inactive

// query Any idea what outcome was measured for O=C(O)CCCN1CCCC(=C(c2ccccc2)c2ccccc2)C1 ?
// result inactive

###

# Experiment description: antimalarial activity against Dd2 strain (AID 2302);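 also: 0% = DMSO untreated growth and 100% = chloroquine plus artemisinin killed control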
# Settings: P. falciparum Dd2 in RBCs, LDH growth readout, 72 h; at 2 µM; active compounds read high
Measured attribute: growth inhibition (%)
Reply with just the number (in %).

Illustrative cases are given below, each with its answer.
{"columns": ["Molecule", "Unit spec", "growth inhibition"],
 "data": [
  ["COc1ccc(CCCN2C(=O)C(c3ccccc3)(c3ccccc3)N=C2N)cc1", "%", 76],
  ["O=C1CN(C(=O)CCC2CCCC2)C(c2ccc(F)cc2)c2cc(F)ccc2N1 (stereo not given)", "%", 75],
  ["COC(=O)c1cc(C(O)CNC(C)CCc2cccc(F)c2)ccc1O (stereo not given)", "%", 77],
  ["CC(C)CSc1cc(C(=O)Nc2cc(Cl)ccc2O)ccn1", "%", 34],
  ["Cc1ccnc(Nc2nc(-c3ccccn3)cs2)c1", "%", 87]
]}

// query Any idea what growth inhibition was measured for O=C(NCc1ccco1)c1ccc(CN2CCN(C(c3ccccc3)c3ccccc3)CC2)cc1 ?
// result 92

// query Any idea what growth inhibition was measured for CCC(CO)NCC(O)Cn1c2ccc(Br)cc2c2cc(Br)ccc21 (stereo not given) ?
// result 87

// query Any idea what growth inhibition was measured for COc1ccc(OC)c(Cc2cnc3nc(N)nc(N)c3c2C)c1 ?
// result 97

// query Any idea what growth inhibition was measured for C=CCOC(=O)N1CCC(CNCc2ccc(-c3ccc(-c4nc5ccc(C(F)(F)F)cc5[nH]4)cc3)cc2)C1 (stereo not given) ?
// result 98

// query Any idea what growth inhibition was measured for O=C(C=Cc1ccc(-c2nc3ccccc3[nH]2)cc1)NC1CCN(Cc2ccccc2)CC1 ?
// result 88

// query Any idea what growth inhibition was measured for CC(=O)Nc1ccc(CN(Cc2ccc(C)cc2)Cc2cccc(Oc3ccccc3)c2)cc1 ?
// result 87

// query Any idea what growth inhibition was measured for CS(=O)(=O)N(c1ccc(F)cc1)c1cc(C(=O)N[C@@H](Cc2ccccc2)[C@H](O)CNCc2cccc(C(F)(F)F)c2)cc(N2CCCC2=O)c1 ?
// result 65

// query Any idea what growth inhibition was measured for O=C(Nc1ccc(-c2ccccc2)cc1)Nc1cccc(Cn2cnc(N3CCCNCC3)cc2=O)c1 ?
// result 13

// query Any idea what growth inhibition was measured for O=C(c1cccc(-c2ccc(-c3nc4ccc(F)cc4[nH]3)s2)c1)N1CCCCC1CN1CCC(O)C1 (stereo not given) ?
// result 85

// query Any idea what growth inhibition was measured for CCOc1cc(C(=O)NCc2ccc(Cl)c(Cl)c2)ccc1-c1nc2ccc(Cl)cc2[nH]1 ?
// result 4

// query Any idea what growth inhibition was measured for Cc1c(S(=O)(=O)Nc2ccc3nccc(N4C[C@@H](C)N[C@@H](C)C4)c3c2)sc2ccc(Cl)cc12 ?
// result -4

// query Any idea what growth inhibition was measured for CCCc1nc2c(N3CC(NC(=O)/C=C/c4ccccc4)C3)cccc2n1C1CC1 ?
// result 68

// query Any idea what growth inhibition was measured for Fc1cccc(Nc2nc(NCc3ccc(Cl)c(Cl)c3)nc(Nc3cccc(F)c3)n2)c1 ?
// result 7

// query Any idea what growth inhibition was measured for Cc1cc(N[C@@H](Cc2ccccc2)C(=O)Nc2ccccc2)nc(NCCc2cccnc2)n1 ?
// result 57

// query Any idea what growth inhibition was measured for COCCOc1ccc(C(F)(F)F)cc1NC(=O)Cc1c(F)cccc1Cl ?
// result 74

###

Entries annotated with measured growth inhibition
# Experiment description: inhibition of 3D7 malaria parasite growth – strain 3D7 (AID 2306);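 also: 0% = DMSO wells and 100% = chloroquine plus artemisinin control wells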
# Settings: P. falciparum 3D7 erythrocytic growth, LDH absorbance, 72 h; at 2 µM; active compounds read high
Reply with just the number (in %).

{"columns": ["Compound", "growth inhibition [%]"],
 "data": [
  ["O=C(Nc1ccc(OC2CCN(Cc3ccc(F)cc3)C2)cc1)c1cccs1 (stereo not given)", 94],
  ["C=CCc1cccc(CN2CCC(c3cc(=O)[nH]c(-c4ccccn4)n3)CC2)c1O", 91],
  ["CO/C(=C\\C=C\\c1cc2cc(Cl)c(Cl)cc2[nH]1)C(=O)NCCCNCCN(C)c1ccccc1", 100],
  ["COc1ccc2nc3cc(Cl)ccc3c(NCCN3CCN(C)CC3)c2c1", 100]
]}

Kindly review the next compound as well.
// query Any idea what growth inhibition was measured for CCN1CCC(N(Cc2ccc(-c3ccc(C(F)(F)F)cc3)cc2)C(=O)Cn2c(CCc3cccc(F)c3F)cc(=O)c3ccccc32)CC1 ?
// result 94

###

# Subject of test: L-lactate dehydrogenase (Plasmodium falciparum (isolate CDC / Honduras)) (UniProt Q27743)
# Sequence (Q27743 whole entry, looked up): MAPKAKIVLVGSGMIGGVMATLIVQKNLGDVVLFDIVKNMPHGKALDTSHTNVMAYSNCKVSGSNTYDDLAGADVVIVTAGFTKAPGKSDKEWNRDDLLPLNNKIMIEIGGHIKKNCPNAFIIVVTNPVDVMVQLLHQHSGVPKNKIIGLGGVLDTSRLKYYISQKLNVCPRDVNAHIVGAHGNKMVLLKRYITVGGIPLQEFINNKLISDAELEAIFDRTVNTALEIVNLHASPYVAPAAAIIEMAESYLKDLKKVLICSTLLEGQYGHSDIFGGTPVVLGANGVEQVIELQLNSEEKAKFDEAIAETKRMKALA
# Experiment description: PfLDH activity inhibition – cell lysate, 3D7 strain, counter-screen for P. falciparum growth inhibition project (AID 2304);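 also: 0% = vehicle and 100% = reference inhibitor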
# Settings: P. falciparum 3D7 crude extract, LDH APAD/NBT absorbance; at 2 µM; active compounds read high
Measured attribute: inhibition (%)
Reply with just the number (in %).

Illustrative cases are given below, each with its answer.
{"columns": ["Molecule", "Measured attribute", "Observed result"],
 "data": [
  ["COc1ccc(N2CCN(CCCOc3ccc(NC(=O)c4cc(Cl)cc(Cl)c4)cc3)CC2)c(OC)c1", "inhibition", 2],
  ["O=S(=O)(Nc1ccc(CCN2CCC(N3CCCCC3)CC2)cc1)c1cccc(C(F)(F)F)c1", "inhibition", -3],
  ["CCOc1cc(Br)c(C(C)NC(=O)c2cccc(OC)c2)cc1OCC (centres undefined)", "inhibition", 3],
  ["Cc1ccc(NC(=O)c2nc(N3CCN(c4ccncc4)CC3)ccc2Cl)cc1F", "inhibition", -5],
  ["CN1CCCc2ccc(NC(=O)C=Cc3ccc(-c4ccc(F)cc4F)o3)cc2C1", "inhibition", -5]
]}

// query Any idea what inhibition was measured for Cc1ccccc1N1CCN(c2ncc(C(=O)NC3CC3)cc2Cl)CC1 ?
// result -2

// query Any idea what inhibition was measured for O=C(/C=C/c1ccc(Cl)c(Cl)c1)NCCCCCN1CCC(NC(=O)Nc2ccc(C(F)(F)F)cc2)CC1 ?
// result 3

// query Any idea what inhibition was measured for CN1CCN(c2ccnc3ccc(NC(=O)Nc4cccc5ccccc45)cc23)CC1 ?
// result 1

###

Entries annotated with measured growth inhibition
# Experiment description: inhibition of 3D7 malaria parasite growth – strain 3D7 (AID 2306);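 also: 0% = DMSO wells and 100% = chloroquine plus artemisinin control wells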
# Settings: P. falciparum 3D7 erythrocytic growth, LDH absorbance, 72 h; at 2 µM; active compounds read high
Active and inactive are the calls of the source. The rule behind the calls is not given here.

Illustrative cases are given below, each with its answer.
{"columns": ["Compound", "Measured attribute", "Observed result"],
 "data": [
  ["Cc1c(CN2CCC(N3CCC(C(=O)NC4CC4)CC3)CC2)[nH]c2c(Cl)cccc12", "growth inhibition", "92% (active)"],
  ["Nc1nccc(-c2ccc3c(/C=C/c4ccccc4)cnc(N)c3c2)n1", "growth inhibition", "101% (active)"],
  ["CCCCOc1ccc(/C=C/c2ccc(-c3c(C)[nH]c(C)c(Cl)c3=O)s2)cc1", "growth inhibition", "97% (active)"],
  ["Fc1cccc(C=NNc2ccnc3cc(Cl)ccc23)c1", "growth inhibition", "99% (active)"],
  ["CCCN1CCN(Cc2ccc(-c3ccc(-c4nc5ccccc5[nH]4)s3)cc2)CC1", "growth inhibition", "103% (active)"],
  ["c1ccc(-c2cc(NCCCCCCCCNc3cc(-c4ccccc4)nc4ccccc34)c3ccccc3n2)cc1", "growth inhibition", "101% (active)"]
]}

// query Any idea what growth inhibition was measured for CN(CCCCCN1CCC(NC(=O)Nc2ccc(C(F)(F)F)cc2)C1)C(=O)/C=C/c1ccc(Cl)c(Cl)c1 (centres undefined) ?
// result 101% (active)

// query Any idea what growth inhibition was measured for Nc1nccc(-c2ccc3c(-c4cccc(F)c4)cnc(N)c3c2)n1 ?
// result 93% (active)

Taken from PubChem BioAssay.
